# Test system: SK-MEL-5 melanoma
# methodNotes: NCI-60 one-dose screen, 48 h
# conditionSet: 10 µM unless noted
About 83,000 compounds went through this panel and 20% of them were active in at least one assay; those are over-represented in the sample as a whole. Activity calls are given as the source filed them. The calls were made as follows: active = growth percent below 10; inactive = the rest.
Write down the outcome that applies. Available outcomes: active, inactive

See these solved cases before continuing.
O=C(O)c1cn(C2CC2)c2cc(N3CCN(C(=O)N4CCOCC4)CC3)c(F)cc2c1=O :: inactive
O=S(Nc1ccccc1)c1ccc(Cl)cc1 (stereo not drawn) :: inactive
CN(C)CCCn1c2c(c3ccncc3c1=O)C(=O)c1ccccc1-2 :: active
C=CC(=O)Nc1cccc(Oc2nccc(Nc3nnc(-c4ccc(Br)cc4)s3)n2)c1 :: inactive
Cc1c2ccccc2nc2cc3c(cc12)[C@H]1CC[C@]2(C)C(=O)CC[C@H]2[C@@H]1CC3 :: inactive
C/C=C1/CN(CCCCC)CC[C@H]1C(=O)c1cc2ccccc2[nH]1 :: inactive
O=[N+]([O-])c1ccccc1Sc1ccccc1[N+](=O)[O-] :: inactive

In the following, a different compound is considered.
Problem: Record lookup: outcome of this test for C=CN(C(=O)N1CCN(c2cc3c(cc2F)c(=O)c(C(=O)O)cn3C2CC2)CC1)c1nc(-c2ccc(Cl)cc2)cs1 ?
Solution: inactive

* * *

# System: NCI/ADR-RES ovarian
# methodNotes: NCI-60 one-dose screen, 48 h
# conditionSet: 10 µM unless noted
# Method: Growth inhibition of the NCI/ADR-RES human […] tumor cell line is measured as a screen for anti-cancer activity. Cells are grown in 96 well plates and exposed to the test compound for 48 hours. Compounds are tested at a single concentration, which is 10^-5 M for most compounds. The reported endpoint is percent growth (GI% or GIPRCNT), where numbers from 0 - 100% represent growth inhibition, and numbers from -100% - 0 represent cell death. For example, a value of 40 represents 60% growth inhibition. […]
Compounds without any hit were thinned out: in the full panel of roughly 83,000, 20% have a hit. Activity calls are given as the source filed them. How the source made its calls: active means growth percent below 10; inactive means the rest.
Write down the outcome that applies. Available outcomes: active, inactive

See these solved cases before continuing.
Cc1cc(=O)n(C(=S)Nc2ccc(Cl)cc2)c2cc(O)ccc12 :: inactive
Fc1cccc(-c2nc(-c3c[nH]c4ncccc34)cs2)c1 :: inactive
C=CN(C(=O)N1CCN(c2cc3c(cc2F)c(=O)c(C(=O)O)cn3C2CC2)CC1)c1nc(-c2ccccc2)cs1 :: inactive

Problem: Record lookup: outcome of this test for Clc1ccc(Nc2ncc(Cc3cccc(Cl)c3Cl)s2)cc1 ?
Solution: inactive

Problem: Record lookup: outcome of this test for N#CC1=C(N)Oc2c(sc3c(F)cccc23)C1c1ccc([N+](=O)[O-])cc1 (stereo not drawn) ?
Solution: active

Problem: Record lookup: outcome of this test for Cc1ccc(S(=O)(=O)OC[C@]23CCC(C)(C)C[C@H]2C2=CC[C@@H]4[C@@]5(C)CCCNC(C)(C)[C@@H]5CC[C@@]4(C)[C@]2(C)CC3)cc1 ?
Solution: inactive

Problem: Record lookup: outcome of this test for COc1ccc(-c2cc(-c3cc(OC)ccc3OC)nc(SCC(C)=O)c2C#N)cc1 ?
Solution: inactive

Problem: Record lookup: outcome of this test for CCOC(=O)c1nnn(-c2no[n+]([O-])c2-c2ccc(OC)cc2)c1COc1cccc2cccnc12 ?
Solution: active

Problem: Record lookup: outcome of this test for COc1ccc(-c2cc(-c3cccnc3)nc3sc4c(N)c(C(C)=O)c(-c5ccccc5)nc4c23)cc1OC ?
Solution: inactive

Problem: Record lookup: outcome of this test for COC(=O)/C=C1/SC(=NCc2ccccc2)N(CCc2c[nH]c3ccccc23)C1=O ?
Solution: inactive

Problem: Record lookup: outcome of this test for NCCCNc1nc2ccccc2c2c(=O)c3cc(Cl)ccc3sc12 ?
Solution: active

Problem: Record lookup: outcome of this test for C1CCC(N2CN3c4nonc4N4CN(C5CCCCC5)CN5c6nonc6N(C2)C3C45)CC1 (stereo not drawn) ?
Solution: inactive

Problem: Record lookup: outcome of this test for Nc1ncnc2c1N=C(c1ccc(Cl)cc1)CC(c1cccc(Nc3ccnc4cc(Cl)ccc34)c1)N2 (stereo not drawn) ?
Solution: inactive

Problem: Record lookup: outcome of this test for O=C(c1ccc(Br)cc1)C(Br)C(c1ccc(Cl)cc1)C(c1ccccc1)[N+](=O)[O-] (stereo not drawn) ?
Solution: inactive

Problem: Record lookup: outcome of this test for CC(=O)O[C@H]1CC[C@]2(C)[C@H]3CC=C4[C@@H]5CC(C)(C)CC[C@]5(C(=O)N5CCN(CCC#N)CC5)CC[C@@]4(C)[C@]3(C)CC[C@H]2C1(C)C ?
Solution: inactive

Problem: Record lookup: outcome of this test for C=C(C)[C@@H]1CC[C@]2(C(=O)Nc3ccccn3)CC[C@]3(C)[C@H](CC[C@@H]4[C@@]5(C)CCCNC(C)(C)[C@@H]5CC[C@]43C)[C@@H]12 ?
Solution: inactive

Problem: Record lookup: outcome of this test for CCNC(=O)N1CCc2c(Br)c3c(c(OC)c2C1Cc1ccc(OC)cc1)OCO3 (stereo not drawn) ?
Solution: active

Problem: Record lookup: outcome of this test for Cc1ccc2c(c1)sc1nc(-c3c[nH]c4ccccc34)c(Nc3ccccc3)n12 ?
Solution: inactive

Problem: Record lookup: outcome of this test for O=C(Nc1cccnc1Nc1ccccc1)c1cn(Cc2cccc(Oc3ccccc3)c2)nn1 ?
Solution: inactive

Problem: Record lookup: outcome of this test for N=C(N)c1ccc(OCCSCCOc2ccc(C(=N)N)cc2)cc1 ?
Solution: inactive

Problem: Record lookup: outcome of this test for CCCn1c(=S)sc2c(NNC(C)=O)nc(C)nc21 ?
Solution: inactive

Problem: Record lookup: outcome of this test for Cc1ccc(S(=O)(=O)N2CCCN(c3nc(-c4ccccc4)nc4nc(-c5ccccc5)oc34)CC2)cc1 ?
Solution: inactive

Problem: Record lookup: outcome of this test for CCCN(CCSSCCNc1nc(N(C)O)nc(N(C)O)n1)c1nc(N(C)O)nc(N(C)O)n1 ?
Solution: inactive
